# MEASUREMENT_TARGET: HTRA2, O43464
# Sequence (O43464 355-458): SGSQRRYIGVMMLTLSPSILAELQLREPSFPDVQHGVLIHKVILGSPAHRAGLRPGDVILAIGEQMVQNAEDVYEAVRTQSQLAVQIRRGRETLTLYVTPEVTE
# ASSAY_INFO: holdup assay
# Design: key: below the threshold = too weak to quantify, mostly under pKd 3.1 to 4
# CONDITIONS_USED: plain residues with an end cap or a label only (N-terminal biotin on a linker: ado-ado)

| BINDER | pKd |
| --- | --- |
| KAEEKPPSKV [SCN4B, Q8IWT1] | below the threshold |
| GTMFLRETSL [GUCY1A2, P33402] | below the threshold |
| TKEIPNCTSV [SORCS3, Q9UPU3] | below the threshold |
| VCMGDHWFDV [PRKN, O60260] | 3.96 |
| TNSKQGETTV [FZD1, Q9UP38] | 3.55 |
| QQGLLPHSSC [TYRO3, Q06418] | below the threshold |
| PAALPESTHM [SLC9A3, P48764] | below the threshold |
| KPDKQEEFYA [SDC3, O75056] | below the threshold |
